Test system: MG-63 (Osteosarcoma);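 note: after 72 h of two-drug dosing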
Experiment: Bliss excess, mean over the matrix (fraction); higher = more synergy
readout-kind: Bliss excess

compound="COc1cc2c(cc1OCCCCCOc1cc3c(cc1OC)C(=O)N1C=C(C)C[C@H]1C=N3)N=C[C@@H]1CC(C)=CN1C2=O [SG3199] + O=C(c1cc(Cc2n[nH]c(=O)c3ccccc23)ccc1F)N1CCN(C(=O)C2CC2)CC1 [Olaparib] (first compound max 0.001 µM, 7x7, partner max 10 µM)" observed_measurement=-0.0041

* * *

Tested on: Daudi (Burkitt's Lymphoma)
Assay: combination Emax (second highest fraction inhibited in the dose matrix, 72 h); higher = more inhibition; extreme values may be limits of the assay
readout-kind: combination Emax

compound="COc1cccc(OCCCN)c1-c1cc(Nc2cnc(C#N)cn2)n[nH]1 [Prexasertib] + C[C@@H]1COCCN1C2=NC(=NC(=C2)C3(CC3)[S@](=N)(=O)C)C4=C5C=CNC5=NC=C4 [AZD6738] (first compound max 1 µM, 7x7, partner max 10 µM)" system_under_test="Daudi (Burkitt's Lymphoma)" readout_kind="combination Emax" observed_measurement=0.939
compound="COc1nnc2ccc(N3CCC(c4ccc(OCCN5CCN(C)C(=O)[C@H]5C)cc4)CC3)nn12 [AZD5153] + C[C@@H]1COCCN1C2=NC(=NC(=C2)C3(CC3)[S@](=N)(=O)C)C4=C5C=CNC5=NC=C4 [AZD6738] (first compound max 1 µM, 7x7, partner max 10 µM)" system_under_test="Daudi (Burkitt's Lymphoma)" readout_kind="combination Emax" observed_measurement=0.843
compound="CN(CCO)CC[C@H](CSc1ccccc1)Nc1ccc(S(=O)(=O)NC(=O)c2ccc(N3CCC([C@@H](O)c4ccccc4-c4ccc(Cl)cc4)CC3)cc2)cc1S(=O)(=O)C(F)(F)F [AZD4320] + C=CCn1c(=O)c2cnc(Nc3ccc(N4CCN(C)CC4)cc3)nc2n1-c1cccc(C(C)(C)O)n1 [AZD1775] (first compound max 1 µM, partner max 1 µM)" system_under_test="Daudi (Burkitt's Lymphoma)" readout_kind="combination Emax" observed_measurement=0.336
compound="NC1(C(=O)N[C@@H](CCO)c2ccc(Cl)cc2)CCN(c2ncnc3[nH]ccc23)CC1 [Capivasertib] + CCN(CCO)CCCOc1ccc2c(Nc3cc(CC(=O)Nc4cccc(F)c4)[nH]n3)ncnc2c1 [AZD2811] (first compound max 10 µM, 7x7, partner max 1 µM)" system_under_test="Daudi (Burkitt's Lymphoma)" readout_kind="combination Emax" observed_measurement=0.806
compound="CN(C)CCCOc1ccc(-c2ccc3ncc4c(c3c2)n(C2CCOCC2)c(=O)n4C)cn1 [AZD0156] + O=C(c1cc(Cc2n[nH]c(=O)c3ccccc23)ccc1F)N1CCN(C(=O)C2CC2)CC1 [Olaparib] (first compound max 3 µM, partner max 3 µM)" system_under_test="Daudi (Burkitt's Lymphoma)" readout_kind="combination Emax" observed_measurement=0.48
compound="CCc1c2c(nc3ccc(O)cc13)-c1cc3c(c(=O)n1C2)COC(=O)[C@]3(O)CC [SN-38] + O=C(c1cc(Cc2n[nH]c(=O)c3ccccc23)ccc1F)N1CCN(C(=O)C2CC2)CC1 [Olaparib] (first compound max 0.3 µM, 7x7, partner max 10 µM)" system_under_test="Daudi (Burkitt's Lymphoma)" readout_kind="combination Emax" observed_measurement=0.979
compound="CN(CCO)CC[C@H](CSc1ccccc1)Nc1ccc(S(=O)(=O)NC(=O)c2ccc(N3CCC([C@@H](O)c4ccccc4-c4ccc(Cl)cc4)CC3)cc2)cc1S(=O)(=O)C(F)(F)F [AZD4320] + CN(C)CCCOc1ccc(-c2ccc3ncc4c(c3c2)n(C2CCOCC2)c(=O)n4C)cn1 [AZD0156] (first compound max 1 µM, 7x7, partner max 1 µM)" system_under_test="Daudi (Burkitt's Lymphoma)" readout_kind="combination Emax" observed_measurement=0.119
compound="CS(=O)(=O)CCNCc1ccc(-c2ccc3ncnc(Nc4ccc(OCc5cccc(F)c5)c(Cl)c4)c3c2)o1 [Lapatinib] + C[C@@H](Oc1cc(-c2cnn(C3CCNCC3)c2)cnc1N)c1c(Cl)ccc(F)c1Cl [Crizotinib] (first compound max 10 µM, 7x7, partner max 10 µM)" system_under_test="Daudi (Burkitt's Lymphoma)" readout_kind="combination Emax" observed_measurement=0.945
compound="CN(CCO)CC[C@H](CSc1ccccc1)Nc1ccc(S(=O)(=O)NC(=O)c2ccc(N3CCC([C@@H](O)c4ccccc4-c4ccc(Cl)cc4)CC3)cc2)cc1S(=O)(=O)C(F)(F)F [AZD4320] + Cn1cnc2c(F)c(Nc3ccc(Br)cc3Cl)c(C(=O)NOCCO)cc21 [Selumetinib] (first compound max 1 µM, 7x7, partner max 3 µM)" system_under_test="Daudi (Burkitt's Lymphoma)" readout_kind="combination Emax" observed_measurement=0.65
compound="CN(C)CCCOc1ccc(-c2ccc3ncc4c(c3c2)n(C2CCOCC2)c(=O)n4C)cn1 [AZD0156] + C[C@@H]1COCCN1C2=NC(=NC(=C2)C3(CC3)[S@](=N)(=O)C)C4=C5C=CNC5=NC=C4 [AZD6738] (first compound max 1 µM, 7x7, partner max 10 µM)" system_under_test="Daudi (Burkitt's Lymphoma)" readout_kind="combination Emax" observed_measurement=0.848
compound="Cc1c2c(nn1C)CSCc1cc(n(C)n1)CSc1cc(c3ccccc3c1)OCCCc1c(C(=O)O)n(C)c3c-2c(Cl)ccc13 [AZD5991] + Cn1cnc2c(F)c(Nc3ccc(Br)cc3Cl)c(C(=O)NOCCO)cc21 [Selumetinib] (first compound max 1 µM, 7x7, partner max 3 µM)" system_under_test="Daudi (Burkitt's Lymphoma)" readout_kind="combination Emax" observed_measurement=0.394
compound="CC1(C)CCC(CN2CCN(c3ccc(C(=O)NS(=O)(=O)c4ccc(NCC5CCOCC5)c([N+](=O)[O-])c4)c(Oc4cnc5[nH]ccc5c4)c3)CC2)=C(c2ccc(Cl)cc2)C1 [Venetoclax] + Cc1cc2ncnn2cc1Nc1ncc2c(n1)n(C1CCOCC1)c(=O)n2C [AZD7648] (first compound max 1 µM, 7x7, partner max 10 µM)" system_under_test="Daudi (Burkitt's Lymphoma)" readout_kind="combination Emax" observed_measurement=0.247
compound="COc1nnc2ccc(N3CCC(c4ccc(OCCN5CCN(C)C(=O)[C@H]5C)cc4)CC3)nn12 [AZD5153] + CCN(CCO)CCCOc1ccc2c(Nc3cc(CC(=O)Nc4cccc(F)c4)[nH]n3)ncnc2c1 [AZD2811] (first compound max 1 µM, 7x7, partner max 1 µM)" system_under_test="Daudi (Burkitt's Lymphoma)" readout_kind="combination Emax" observed_measurement=0.677
compound="Cc1cc2ncnn2cc1Nc1ncc2c(n1)n(C1CCOCC1)c(=O)n2C [AZD7648] + CCN(CCO)CCCOc1ccc2c(Nc3cc(CC(=O)Nc4cccc(F)c4)[nH]n3)ncnc2c1 [AZD2811] (first compound max 10 µM, 7x7, partner max 1 µM)" system_under_test="Daudi (Burkitt's Lymphoma)" readout_kind="combination Emax" observed_measurement=0.508
compound="CN(CCO)CC[C@H](CSc1ccccc1)Nc1ccc(S(=O)(=O)NC(=O)c2ccc(N3CCC([C@@H](O)c4ccccc4-c4ccc(Cl)cc4)CC3)cc2)cc1S(=O)(=O)C(F)(F)F [AZD4320] + C[C@@H]1COCCN1C2=NC(=NC(=C2)C3(CC3)[S@](=N)(=O)C)C4=C5C=CNC5=NC=C4 [AZD6738] (first compound max 1 µM, 7x7, partner max 10 µM)" system_under_test="Daudi (Burkitt's Lymphoma)" readout_kind="combination Emax" observed_measurement=0.65
